Sourced from patent US7816408B2

experimental system: human calcium receptor (Homo sapiens)
Sequence (P41180 20-1078): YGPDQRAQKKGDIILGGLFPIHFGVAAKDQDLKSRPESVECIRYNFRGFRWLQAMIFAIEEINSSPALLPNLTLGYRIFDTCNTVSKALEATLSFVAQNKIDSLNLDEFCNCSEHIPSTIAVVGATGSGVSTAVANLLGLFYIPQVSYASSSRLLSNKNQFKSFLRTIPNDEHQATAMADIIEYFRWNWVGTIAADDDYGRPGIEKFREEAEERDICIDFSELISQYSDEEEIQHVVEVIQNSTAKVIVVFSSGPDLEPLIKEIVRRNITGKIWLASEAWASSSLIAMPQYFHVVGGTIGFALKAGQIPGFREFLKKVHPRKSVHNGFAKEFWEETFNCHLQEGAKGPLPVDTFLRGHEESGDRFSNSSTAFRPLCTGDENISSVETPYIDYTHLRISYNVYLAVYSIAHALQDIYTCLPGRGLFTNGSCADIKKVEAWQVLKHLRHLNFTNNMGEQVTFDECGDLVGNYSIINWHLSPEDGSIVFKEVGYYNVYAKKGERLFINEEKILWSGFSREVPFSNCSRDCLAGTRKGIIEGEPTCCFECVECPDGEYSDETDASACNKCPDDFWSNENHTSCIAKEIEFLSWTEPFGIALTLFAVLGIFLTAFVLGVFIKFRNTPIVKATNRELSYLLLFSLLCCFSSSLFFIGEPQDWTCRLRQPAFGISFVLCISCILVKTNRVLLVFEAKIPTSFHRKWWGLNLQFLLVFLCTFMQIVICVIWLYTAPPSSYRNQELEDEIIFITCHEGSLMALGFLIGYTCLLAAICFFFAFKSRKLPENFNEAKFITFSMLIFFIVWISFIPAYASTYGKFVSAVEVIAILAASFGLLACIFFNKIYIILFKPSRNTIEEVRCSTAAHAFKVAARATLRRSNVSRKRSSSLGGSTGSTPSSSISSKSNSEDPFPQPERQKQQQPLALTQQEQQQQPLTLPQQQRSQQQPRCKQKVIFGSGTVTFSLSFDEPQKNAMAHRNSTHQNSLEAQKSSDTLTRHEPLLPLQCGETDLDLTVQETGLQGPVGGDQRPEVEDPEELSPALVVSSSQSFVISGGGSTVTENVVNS
test details: Activity on calcium receptors: fluo-3 fluorescence in HEK293 cells transfected with human calcium receptor gene
run parameters: HEK293 cells transfected with plasmid pHuPCaR4.0 (human calcium receptor gene), loaded with fluo-3; 1 mM CaCl2, 1 mM MgCl2
The entries below come with measured pEC50 values attached.
In textbook form, pEC50 equals minus log to base ten of the concentration in mol/L.

Study these solved cases before continuing.
Can you look up the measured pEC50 of Cc1ccc(SCCCCNC(C)c2cccc3ccccc23)cc1C (stereo not shown) for me?
6.80

Thanks! And CC(NCCC(=O)N(Cc1ccc(F)cc1)Cc1ccc(F)cc1)c1cccc2ccccc12 (stereo not shown) ?
6.74

// same read-out, input: C[C@@H](NCCC(=O)N(Cc1ccccc1)Cc1cccc(Cl)c1)c1cccc2ccccc12
7.74

// repeat for CC(NCCSc1cc(Cl)c(Cl)cc1Cl)c1cccc2ccccc12 (stereo not shown) and report
5.87

Param item: COc1cccc(C(C)NCCCCCSc2ccccc2Cl)c1 (stereo not shown)
6.36

Then what about the molecule COc1ccc(SCCCCN[C@H](C)c2cccc3ccccc23)cc1 ?
6.54

Note: attention shifts to another entry.
Quick one: pEC50 for CC(NCCC(=O)N(Cc1ccccc1Cl)Cc1ccccc1Cl)c1cccc2ccccc12 (stereo not shown) ?
7.06
